Values from patent US20250313563A1

Recorded pIC50, one value per entry.
Biological target: GSK3α (GST-full length GSK3α) (Homo sapiens (Human))
Sequence (P49840 whole entry): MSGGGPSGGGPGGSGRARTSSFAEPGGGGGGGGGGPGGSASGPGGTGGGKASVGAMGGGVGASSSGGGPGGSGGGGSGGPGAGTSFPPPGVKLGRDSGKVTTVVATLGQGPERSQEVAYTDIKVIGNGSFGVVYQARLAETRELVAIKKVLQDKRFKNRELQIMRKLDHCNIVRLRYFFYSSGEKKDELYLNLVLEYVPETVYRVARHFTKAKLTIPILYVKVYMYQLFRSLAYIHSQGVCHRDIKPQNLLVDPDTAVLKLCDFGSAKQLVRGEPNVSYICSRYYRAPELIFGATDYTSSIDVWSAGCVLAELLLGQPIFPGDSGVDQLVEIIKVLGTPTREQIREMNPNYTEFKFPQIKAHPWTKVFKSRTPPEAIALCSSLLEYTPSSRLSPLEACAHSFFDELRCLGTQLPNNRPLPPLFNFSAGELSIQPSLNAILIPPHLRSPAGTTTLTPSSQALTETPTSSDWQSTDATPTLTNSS
Assay: GSK3α TR-FRET kinase assay
Assay type: biochemical
Conditions: 1 nM GSK3α, 4 μM ATP, 30 minute preincubation; read-out: GSK3-A TR-FRET BIOCHEMICAL (TR-FRET); IC50
pIC50: −log10 of the molar value.

[
  {
    "molecule": "CC(C)S(=O)(=O)N1CCC2(CC1)C1=C(Nc3n[nH]cc32)[C@@H](F)C(C)(C)CC1=O",
    "system_under_test": "GSK3α (GST-full length GSK3α) (Homo sapiens (Human))",
    "pIC50": "≥ 7.00"
  },
  {
    "molecule": "CC1(C)CC(=O)C2=C(C1)Nc1n[nH]cc1[C@]21COC2(CN(C(=O)C3(F)CCC3)C2)C1",
    "system_under_test": "GSK3α (GST-full length GSK3α) (Homo sapiens (Human))",
    "pIC50": "≥ 7.00"
  },
  {
    "molecule": "CC1(C)CC(=O)C2=C(C1)Nc1n[nH]cc1[C@]21CCN(S(=O)(=O)c2ccccc2)C1",
    "system_under_test": "GSK3α (GST-full length GSK3α) (Homo sapiens (Human))",
    "pIC50": "≥ 7.00"
  },
  {
    "molecule": "CC[C@@]1(c2cccc(C(F)(F)F)c2)C2=C(CN(c3ccccc3)C2=O)Nc2n[nH]cc21",
    "system_under_test": "GSK3α (GST-full length GSK3α) (Homo sapiens (Human))",
    "pIC50": "< 5.30"
  }
]

Exercise: // returns reported pIC50 for input CCC1(c2cccc(-c3ccnc(C)c3)c2)C2=C(CC(C)NC2=O)Nc2n[nH]cc21 (stereo not shown)
Key: 6.00 to 7.00

Exercise: Which value of pIC50 has been reported for CCC1(c2cccc(C(C)(C)F)c2)C2=C(CCN(C)C2=O)Nc2n[nH]cc21 (stereo not shown) in the records?
Key: 6.00 to 7.00

Exercise: Which pIC50 value belongs to Cc1ccc(C(=O)N2CC3(C2)CC2(CO3)C3=C(CC(C)(C)CC3=O)Nc3n[nH]cc32)c(C)c1 (stereo not shown) ?
Key: ≥ 7.00
